# Tested on: Colon cancer organoid
# Procedure details: Targeting of F14 CAF-induced therapy resistance in O23 CRC organoid-stroma co-culture. Cell viability is reported with SN-38.
# Assay type: functional, Homo sapiens
# Protocol conditions: Homo sapiens, Concentration 10 uM; read-out: Cell Viability
Group membership follows viability at 10 µM per the scheme low range (below 60%), mid range (60% to below 80%), high range (80% or more)

O=C(NCC(=O)N1CCCC1)Nc1ccc2cnccc2c1    low range

Lab log: N#CC1(c2ccccn2)CCN(Cc2cc(C(=O)O)c(=O)n3ccccc23)CC1 — assign viability at 10 µM category
mid range

Lab log: CO[C@@H](C)c1c(Nc2ccc([C@@H](N(C)C(=O)C3CCS(=O)(=O)CC3)C(F)(F)F)cc2)cnc2cc(Cl)nn12 — assign viability at 10 µM category
high range

Lab log: COc1cc(Nc2ncc3c(n2)-c2ccc(Cl)cc2C(c2c(F)cccc2OC)=NC3)ccc1C(=O)O — assign viability at 10 µM category
low range

Lab log: CCN(CC)S(=O)(=O)Nc1cccc(-c2ccc3c(NC(=O)C4CC4)n[nH]c3c2)c1 — assign viability at 10 µM category
mid range

Lab log: CNCCN1CCC(OCc2ccccc2)CC1 — assign viability at 10 µM category
mid range

Lab log: Cc1nccc(COC(=O)N2C[C@@H]3[C@@H](CNC(=O)c4ccc5[nH]nnc5c4)[C@@H]3C2)n1 — assign viability at 10 µM category
mid range
